# Test system: MV4-11
# RUN DESCRIPTION: cells
# Set-up: species or system AML cell lines (8); Secondary HTS, 10-point dose-response in triplicate, Cell Titer Glo viability, four-parameter fit EC50
# TEST PARAMETERS: Homo sapiens, MV4-11, 72 h, read-out: MV4-11
Counter-ions that a name gives are not always drawn.
MEASURE NAME: EC50

Query :: # return recorded EC50 for input `COc1cc(OC)c(/C=C/S(=O)(=O)Cc2ccc(OC)c(NCC(=O)O)c2)c(OC)c1`
Result :: 0.0124 µM

Query :: Provide one value: measured EC50 of `Cc1ncc(CNC(=O)N(CCCl)N=O)c(N)n1`
Result :: > 10 µM

Query :: Retrieve EC50 measured for `O=C(c1cn(Cc2cncn2Cc2ccc(Br)cc2)cc1-c1cccc2ccccc12)N1CCOCC1` and print it.
Result :: 5 µM

Query :: Identify EC50 associated with the compound `C1=C/COCc2cc(ccc2OCCN2CCCC2)Nc2nccc(n2)-c2cccc(c2)COC/1`
Result :: > 10 µM

Query :: Entry CC(C)(O)[C@@H]1CC[C@](C)([C@H]2[C@@H](O)C[C@@]3(C)[C@@H]4C[C@H](O[C@@H]5O[C@H](CO)[C@@H](O)[C@H](O)[C@H]5O)[C@H]5C(C)(C)[C@@H](O[C@@H]6OC[C@@H](O)[C@H](O)[C@H]6O)CC[C@@]56C[C@@]46CC[C@]23C)O1 [SJ000785909, ASTRAGALOSIDE IV] needs its EC50 filled in; supply it.
Result :: > 10 µM

Query :: Give EC50 for the following compound: `Cn1cncc1[C@@](N)(c1ccc(Cl)cc1)c1ccc2c(c1)c(-c1cccc(Cl)c1)cc(=O)n2C`
Result :: > 10 µM

Query :: Identify measured EC50 associated with `CCn1c(=O)c(-c2cc[nH]n2)cc2c(C)nc(N)nc21`
Result :: > 10 µM

Query :: Please look at this compound and report its EC50: `O=C(/C=C/c1ccc(CN(CCO)CCc2c[nH]c3ccccc23)cc1)NO`
Result :: > 10 µM

Query :: Please look at this compound and report its EC50: `Oc1ccc(C2=Cc3ccc(O)cc3OC2)cc1`
Result :: > 10 µM

Query :: Give recorded EC50. CC/C(=C(\c1ccccc1)c1ccc(OCCN(C)C)cc1)c1ccccc1 [TAMOXIFEN CITRATE]
Result :: > 10 µM

Query :: Respond only with EC50 recorded for `N[C@@H]1CCCN(c2c(/C=C3\SC(=O)NC3=O)cccc2-c2ccccc2)C1`
Result :: > 10 µM

Query :: Supply reported EC50 belonging to this compound: `Cc1cc(Nc2cc(N3CCN(C)CC3)nc(/C=C/c3ccccc3)n2)n[nH]1`
Result :: 0.125 µM

Query :: Supply reported EC50 belonging to this compound: Cc1c(N)nc([C@H](CC(N)=O)NC[C@H](N)C(N)=O)nc1C(=O)N[C@H](C(=O)N[C@H](C)[C@@H](O)[C@H](C)C(=O)N[C@H](C(=O)NCCc1nc(-c2nc(C(=O)NCCC[S+](C)C)cs2)cs1)[C@@H](C)O)[C@@H](OC1OC(CO)C(O)C(O)C1OC1OC(CO)C(O)C(OC(N)=O)C1O)c1cnc[nH]1 (stereo partly shown)
Result :: > 10 µM

Query :: Specify measured EC50 for `Cc1cc(Nc2ccc(NC(=O)c3ccc(Nc4ccnc5ccccc45)cc3)cc2)nc(N)n1` .
Result :: 1.2 µM

Query :: Fill in reported EC50 for this entry: `CNCc1ccc(-c2[nH]c3cc(F)cc4c3c2CCNC4=O)cc1`
Result :: > 10 µM

Query :: Provide EC50 value for the following compound: `COC1=C2C[C@@H](C)C[C@H](OC)[C@H](O)[C@@H](C)/C=C(\C)[C@H](OC(N)=O)[C@@H](OC)/C=C\C=C(/C)C(=O)NC(=CC1=O)C2=O`
Result :: 0.0098 µM

---

# Test system: U937
# Set-up: species or system AML cell lines (8); Primary HTS, single concentration about 10 uM, Cell Titer Glo viability; log10 luminescence, per cent inhibition relative to cycloheximide control
# TEST PARAMETERS: 72 h, relative to cycloheximide control, log10 luminescence, inhibitor, U937 %inh, 10 µM
Values of U937 %inh greater than or equal to 2% map to Criterion met; values below map to Criterion not met.

Query :: Has `CO[C@@H]1[C@H](OC(=O)/C=C/C=C/C=C/C=C/C(=O)O)CC[C@]2(CO2)[C@H]1[C@@]1(C)O[C@@H]1CC=C(C)C` a recorded U937 %inh greater than or equal to 2%?
Result :: Criterion met

Query :: Is U937 %inh at least 2%? Consider `CCCC[C@@H](C=O)NC(=O)[C@H](CC(C)C)NC(=O)OCc1ccccc1`
Result :: Criterion met

Query :: // inclusive: U937 %inh at least 2%? input: CCOc1cc(CC(=O)N[C@@H](CC(C)C)c2ccccc2N2CCCCC2)ccc1C(=O)O [SJ000287528-3, REPAGLINIDE]
Result :: Criterion not met

Query :: Determine whether this compound has U937 %inh no lower than 2%: CCOC(=O)C1=C(C)NC(C)=C(C(=O)OC)C1c1cccc(Cl)c1Cl (single isomer, unassigned)
Result :: Criterion met

Query :: Could you please find out whether Nc1ccc(S(=O)(=O)Nc2ccccn2)cc1 [SJ000285852-4, SULFAPYRIDINE] has U937 %inh that meets 2% or exceeds it?
Result :: Criterion met

---

# Test system: CMS
# Design: species or system AML cell lines (8); Primary HTS, single concentration about 10 uM, Cell Titer Glo viability; log10 luminescence, per cent inhibition relative to cycloheximide control
# TEST PARAMETERS: 72 h, relative to cycloheximide control, log10 luminescence; inhibitor
Task for the reader: assign each of the following molecules its reported CMS %inh.
Answer in %, number only, no unit symbol.

Query :: In one line, give reported CMS %inh of the entry COc1cc2c(cc1Nc1nc(N3CCc4ccccc43)c3cc[nH]c3n1)N(C(=O)CN(C)C)CC2 [SJ000573043-1, N7699-100-1] .
Result :: 96.79

Query :: # return recorded CMS %inh for input C=CC1=C(C(=O)O)N2C(=O)[C@@H](NC(=O)/C(=N\O)c3csc(N)n3)[C@H]2SC1 [SJ000286082-3]
Result :: 3.32

Query :: Consider the molecule NS(=O)(=O)c1ccc(Nc2cc(-c3cccc(O)c3)n[nH]2)cc1 [SJ000573324-1, T350/111/20] . State its measured CMS %inh.
Result :: 0.8193

Query :: Report CMS %inh, nothing else, for this molecule: O=C(O[C@H]1CN[C@H](C#Cc2cc3ncnc(Nc4ccc(OCc5cccc(F)c5)c(Cl)c4)c3s2)C1)N1CCOCC1 [SJ000573329-1, U20348/87/4]
Result :: 8.758

Query :: Give CMS %inh for Nc1nonc1-c1nc2cnccc2n1C1CC1 [SJ000573161-1, SD100950-085A1]
Result :: 4.949

Query :: Retrieve CMS %inh measured for COc1cc(N2CCN(C(C)C)CC2)ccc1Nc1nc(Nc2cccc(F)c2C(=O)O)c2cc[nH]c2n1 [SJ000573302-1, U24644/141/1] and print it.
Result :: -1.742

Query :: Let me know recorded CMS %inh for O=[N+]([O-])c1ccc2c(c1)C(c1ccccc1Cl)=Nc1cn[nH]c1N2 [SJ000581083-1] , thanks.
Result :: -0.274

Query :: Answer with reported CMS %inh of CCn1cc(C(=O)O)c(=O)c2cc(F)c(N3CCNCC3)nc21 [SJ000285962-4, ENOXACIN]
Result :: 4.313

Query :: Answer with the recorded CMS %inh of CN(C)C(=O)O[C@@H]1CN[C@@H](C#Cc2cc3ncnc(Nc4ccc(OCc5cccc(F)c5)c(Cl)c4)c3s2)C1 [SJ000573053-2, U20298/139/1 | U20747/39/1] only.
Result :: 4.277

---

Provide the recorded ML-2 %inh for the entries that follow.
# System: ML-2
# Set-up: species or system AML cell lines (8); Primary HTS, single concentration about 10 uM, Cell Titer Glo viability; log10 luminescence, per cent inhibition relative to cycloheximide control
# TEST PARAMETERS: 72 h, relative to cycloheximide control, log10 luminescence; inhibitor
Write the number in % without appending the unit.

Query :: Give the reported value of ML-2 %inh for this record: `Cn1cc(C2=C(c3cn(C)c4cc(C(=O)O)ccc34)C(=O)NC2=O)c2ccccc21`
Result :: -3.521

Query :: Entry `CS(=O)(=O)CCNCc1ccc(-c2ccc3ncnc(Nc4ccc(OCc5cccc(F)c5)c(C(F)(F)F)c4)c3c2)o1` needs its ML-2 %inh filled in; supply it.
Result :: 2.813

Query :: Give the reported value of ML-2 %inh for this record: `O=C(Nc1n[nH]c2cc(-c3cc(F)ccc3F)ccc12)C1CC1`
Result :: 4.109

Query :: Give the reported ML-2 %inh for this compound. `c1ccc(-c2nc3n(c2-c2ccc4c(c2)OCO4)CCC3)nc1`
Result :: 5.523

Query :: Return value of ML-2 %inh for input `Cn1cc(C=C2C(=O)Nc3cccnc32)c2ccccc21` , no commentary.
Result :: -1.442

Query :: For the compound `CC1(C)CC(n2cnc(-c3ccc(F)cc3)c2-c2ccnc(N)n2)CC(C)(C)N1` , report ML-2 %inh.
Result :: 5.936

Query :: Using the record for `COc1cc(Nc2ncc3c(C)nc(-c4cccc(C(F)(F)F)c4)n3n2)cc(OC)c1OC` , state its measured ML-2 %inh.
Result :: 7.183

Query :: Return value of ML-2 %inh for input CCc1cccc2c3c([nH]c12)C(CC)(CC(=O)O)OCC3 (stereo not shown) , no commentary.
Result :: 1.517

Query :: For the compound `Cc1ccc2c(-c3ccnc(Nc4ccc5c(c4)OCCO5)n3)c(-c3ccc(C(F)(F)F)cc3)nn2n1` , give its reported ML-2 %inh.
Result :: -1.284

Query :: Please supply the value of reported ML-2 %inh for the item `CC(=O)Nc1cccc(C#Cc2cncnc2Nc2ccc(OCc3cccc(F)c3)c(Cl)c2)c1`
Result :: 1.213
